Target: T1, canine OX40L, full length membrane form, expressed on HEK293 cells (canine)
T1 chain: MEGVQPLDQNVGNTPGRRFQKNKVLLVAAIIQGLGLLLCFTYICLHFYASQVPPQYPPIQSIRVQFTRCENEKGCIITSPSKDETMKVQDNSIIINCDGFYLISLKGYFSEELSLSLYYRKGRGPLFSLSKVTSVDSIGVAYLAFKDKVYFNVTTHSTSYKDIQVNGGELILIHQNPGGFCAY
Assay: cell-based or functional assay
assayEndpoint: % Signal Inhibition Average (%)
Give just the number in %; leave the unit off.

Please review the following examples before continuing.
PMX094 (antibody, V domains shown) VH: DIHLVESGGDLVRPGGSLRLSCVASGFTFSNLHMNWVRQAPGKGLQWVAFINSGGSGTTYADVVRGRFTISRDYAKNTLYLQMNSLRADDTAVYYCASGSIWTHFDYWGQGTLVTVSS VL: SFVLTQLPSVSVTLRQTARITCGGDSIGSKSVYWYQQKLGQAPVLIIYRDSNRPTGIPERISGASSGNTATLTISGALAEDEADYYCQVWDSSNKAMFGGGTHLTVL    45.4
PMX084 (antibody, V domains shown, also called PMX84) VH: EVQLVESGGDLVKPEGSLRLSCVVSGFTFSNYDMSWVRQAPGKGLQWVAFISNDGRITGYTDAVEGRFTISRDNAKNTLYLQMNSLRTEDTAVYYCAKETSRWGFDYWGQGTLVTVSS VL: SYVLTQLPSVSVTLRQTARITCGGDSIGSKNVYWHQQKLGQAPVLIIYDDSSRPSGIPERFSGANSGNTATLTISGALAEDEADYYCQVWDSSTSVFGGGTHLTVL    60.7
PMX063 (antibody, V domains shown, also called PMX63) VH: EVQLVESGGDLVRPGGSLRLSCVASGFTFNNYHMSWVRQAPGKGLQWVAFINSGGSGTTFADVVRGRFTISRDYAKNALYLQMNSLRAEDTAVYYCASGSIWTHFDYWGQGTLVTVSS VL: SFVLTQLPSVSVTLRQTARITCGGDIIGSKNVYWYQQRLGQAPVLIIYRDNNRPTGIPERFSGASSGNTATLTISGALAEDEADYYCQVWDNSNKAMFGGGTHLTVL    74.4

# % Signal Inhibition Average (binder: PMX060 (antibody, V domains shown, also called PMX60) VH: EVQLVESGGDLMKPGGSLRLSCVASGFTFSSFPMSWVRQAPGKGLQWVAYIHSGGSSTSYADAVKGRFTISRDNAKNTLYLQMNSLRAEDTAIYYCARTFPTVAADNWFYYWGQGTLVTVSS VL: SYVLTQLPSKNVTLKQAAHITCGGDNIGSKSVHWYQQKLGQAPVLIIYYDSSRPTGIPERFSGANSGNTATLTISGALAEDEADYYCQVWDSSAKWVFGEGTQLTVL ) is 66.1

# % Signal Inhibition Average (binder: PMX097 (antibody, V domains shown, also called PMX97) VH: EVQLVESGGDLVRPGGSLRLSCVASGITFSSYHMSWVRQAPGKGLQWVALINSGGSSITYADVVRGRFTISRDYAKNTLYLQMNSLRAEDTAVYYCASGSIWTHFDYWGQGTRVTVSS VL: SFVLTQLPSVSVTLRQTARITCGGDIIGSKNVYWYQQRLGQAPVLIIYRDSNRPTGIPERFSGASSGNTATLTISGALAEDEADYYCQVWDNSNKAMFGGGTHLTVL ) is 60.8

# % Signal Inhibition Average (binder: PMX089 (antibody, V domains shown) VH: EVQLVESGGDLVKPGGSLRLSCVASGFTFNNFHMSWVRQAPGKGLQWVAFINSDGGNRNYADVVKGRVTISRDYAKNTLYLQINSLRAEDTAVYYCAGGSIWTHFDYWGQGTLVTVSS VL: SYVLTQLPSMSVTLRQTARITCEGDIIASKRIYWYQQKLGQVPVLLIYADSSRPSGIPERFSGASSGNTATLTISGALAEDEADYYCQVWDNNANSVFGGGTHLTVL ) is 47.4

# % Signal Inhibition Average (binder: PMX052 (antibody, V domains shown, also called PMX52) VH: EVQLVESGGDLVKPAGSLRLSCVASGFTFSSYSMSWVRQAPEKGLQLVAGISGGGSRTYYSDAVKGRFTISRDNAKNTVYLQMNSLRAEDTAIYYCAKDGGSWAGYNFDYWGQGTLVTVSS VL: DIVMTQTPPSLSVSPRETASISCKASQSLLHSDGSTYLDWYLQKPGQSPQLLIYLGSNRFTGVSDRFSGSGSGTEFTLRISRVEANDTGVYYCGQGTQLPYTFGQGTELEIK ) is 22.2
